experiment: Plasma concentrations of ayahuasca compounds and metabolites after oral ayahuasca (LC/MS/MS); format: in vivo, human; settings: both sexes, human, in vivo; plasma, 16 volunteers, oral ayahuasca; read-out: Tmax (mean ± sd) (converted)
The following compounds are shown together with reported Tmax values.
PARAMETER_MEASURED: Tmax (h)

[[record]]
compound = "CNCCc1c[nH]c2ccccc12 [NMT, N‐methyltryptamine]"
measured_value = 2.03

[[record]]
compound = "Cc1[nH]ccc2c1[nH]c1cc(=O)ccc12 [Harmol]"
measured_value = 2.47

[[record]]
compound = "CN(C)CCc1c[nH]c2ccccc12 [DMT, N,N-dimethyltryptamine]"
measured_value = 2.21

[[record]]
compound = "CC1=NCCc2c1[nH]c1cc(O)ccc21 [Harmalol]"
measured_value = 2.08

[[record]]
compound = "COc1ccc2c(c1)[nH]c1c(C)nccc12 [Harmine]"
measured_value = 2.5

[[record]]
compound = "COc1ccc2c3c([nH]c2c1)C(C)=NCC3 [Harmaline]"
measured_value = 2.68

